Biological target: c-Src SH2
Experiment: SH2 binding enrichment of the phosphorylated peptide, bacterial display (enrichment ratio); higher = better substrate or ligand; peptides without Tyr show the background
The threshold is inclusive: SH2 binding enrichment of exactly 0.8 counts as criterion met; values below receive criterion not met.

INSERT INTO measurements (seq, answer_label) VALUES
  ('TCFDKYTGSTY [FN1_Y101_N104S]', 'criterion not met');

Here is the next item to consider.
*Q* Textbook exercise: given the entry ASMAKYFASGI [ACADSB_Y372_E376G_YF] , state whether its SH2 binding enrichment is greater than or equal to 0.8.
*A* criterion not met

###

Target: Jak2 (UniProt O60674)
Sequence (O60674 whole entry, looked up): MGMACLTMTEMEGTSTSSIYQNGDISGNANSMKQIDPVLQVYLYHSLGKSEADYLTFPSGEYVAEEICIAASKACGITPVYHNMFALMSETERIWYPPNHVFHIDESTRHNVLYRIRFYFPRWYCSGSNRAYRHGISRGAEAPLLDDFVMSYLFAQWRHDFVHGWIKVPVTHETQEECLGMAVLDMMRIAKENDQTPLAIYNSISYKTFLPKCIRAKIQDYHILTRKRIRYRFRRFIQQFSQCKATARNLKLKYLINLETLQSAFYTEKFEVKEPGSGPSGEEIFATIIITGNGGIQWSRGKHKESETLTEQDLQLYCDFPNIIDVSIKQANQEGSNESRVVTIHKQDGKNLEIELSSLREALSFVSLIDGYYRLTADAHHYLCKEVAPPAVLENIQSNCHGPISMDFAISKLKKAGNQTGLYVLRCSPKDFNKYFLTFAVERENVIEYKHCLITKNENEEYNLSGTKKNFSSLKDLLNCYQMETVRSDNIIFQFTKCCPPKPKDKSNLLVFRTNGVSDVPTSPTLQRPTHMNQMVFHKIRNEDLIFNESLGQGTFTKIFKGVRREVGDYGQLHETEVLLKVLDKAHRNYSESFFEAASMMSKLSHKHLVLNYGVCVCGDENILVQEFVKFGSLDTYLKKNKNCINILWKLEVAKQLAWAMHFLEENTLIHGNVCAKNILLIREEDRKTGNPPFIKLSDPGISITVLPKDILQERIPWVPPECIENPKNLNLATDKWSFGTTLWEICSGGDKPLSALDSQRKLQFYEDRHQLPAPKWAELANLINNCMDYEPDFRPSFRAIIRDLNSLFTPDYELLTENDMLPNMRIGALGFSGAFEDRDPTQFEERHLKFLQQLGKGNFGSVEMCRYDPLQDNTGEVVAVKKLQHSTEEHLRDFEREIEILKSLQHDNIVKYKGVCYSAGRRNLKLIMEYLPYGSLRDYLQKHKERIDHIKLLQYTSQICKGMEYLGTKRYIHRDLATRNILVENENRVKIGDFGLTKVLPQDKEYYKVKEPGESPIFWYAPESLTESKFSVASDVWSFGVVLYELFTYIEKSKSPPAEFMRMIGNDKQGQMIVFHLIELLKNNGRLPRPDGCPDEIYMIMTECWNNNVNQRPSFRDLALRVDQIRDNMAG
Test: phosphorylation enrichment, bacterial display (enrichment ratio); higher = better substrate or ligand; peptides without Tyr show the background
The threshold is inclusive: phosphorylation enrichment of exactly 0.9 counts as Met; values below receive Not met.

Completed entries (count: 2):
INSERT INTO measurements (seq, answer_label) VALUES
  ('TQPSPYAVFRF [RPGRIP1_Y823_YF]', 'Not met'),
  ('ARMTNCGLPRF [TSPAN12_Y138_Y138C_YF]', 'Not met');

Here is the next item to consider.
*Q* Textbook exercise: given the entry GTQCSYLLSRK [UGT3A1_Y123] , state whether its phosphorylation enrichment is greater than or equal to 0.9.
*A* Not met

###

Target: Grb2 SH2 (UniProt P62993)
Sequence (P62993 whole entry, looked up): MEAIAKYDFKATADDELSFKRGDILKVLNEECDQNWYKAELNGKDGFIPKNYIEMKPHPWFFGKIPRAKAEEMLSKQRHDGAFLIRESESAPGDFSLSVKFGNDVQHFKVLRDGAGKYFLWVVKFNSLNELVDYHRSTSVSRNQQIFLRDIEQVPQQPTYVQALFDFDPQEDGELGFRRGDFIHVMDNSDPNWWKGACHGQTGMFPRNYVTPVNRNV
Test: SH2 binding enrichment of the phosphorylated peptide, bacterial display (enrichment ratio); higher = better substrate or ligand; peptides without Tyr show the background
The threshold is inclusive: SH2 binding enrichment of exactly 1 counts as Satisfied; values below receive Not satisfied.

Completed entries (count: 2):
INSERT INTO measurements (seq, answer_label) VALUES
  ('SKAYAYVHFDS [PABPC5_Y149_G146A]', 'Not satisfied'),
  ('RRIHSYRGHLC [VHL_Y112_W117C]', 'Not satisfied');

*Q* Textbook exercise: given the entry PMQLPHDSTWE [PDGFRB_Y589_Y589H] , state whether its SH2 binding enrichment is greater than or equal to 1.
*A* Not satisfied

*Q* Also, RMDGKYACSFT [FLNB_Y704_T703K_YF] please.
*A* Not satisfied

*Q* Also, NVADHYGVYKP [ATP6V0D2_Y271] please.
*A* Not satisfied

*Q* Also, WSFNLYDINKD [KCNIP3_Y174_A170S] please.
*A* Not satisfied

*Q* Also, GFVEDYRPPFY [ACVRL1_Y421_I417F] please.
*A* Not satisfied

###

Target: MERTK (UniProt Q12866)
Sequence (Q12866 whole entry, looked up): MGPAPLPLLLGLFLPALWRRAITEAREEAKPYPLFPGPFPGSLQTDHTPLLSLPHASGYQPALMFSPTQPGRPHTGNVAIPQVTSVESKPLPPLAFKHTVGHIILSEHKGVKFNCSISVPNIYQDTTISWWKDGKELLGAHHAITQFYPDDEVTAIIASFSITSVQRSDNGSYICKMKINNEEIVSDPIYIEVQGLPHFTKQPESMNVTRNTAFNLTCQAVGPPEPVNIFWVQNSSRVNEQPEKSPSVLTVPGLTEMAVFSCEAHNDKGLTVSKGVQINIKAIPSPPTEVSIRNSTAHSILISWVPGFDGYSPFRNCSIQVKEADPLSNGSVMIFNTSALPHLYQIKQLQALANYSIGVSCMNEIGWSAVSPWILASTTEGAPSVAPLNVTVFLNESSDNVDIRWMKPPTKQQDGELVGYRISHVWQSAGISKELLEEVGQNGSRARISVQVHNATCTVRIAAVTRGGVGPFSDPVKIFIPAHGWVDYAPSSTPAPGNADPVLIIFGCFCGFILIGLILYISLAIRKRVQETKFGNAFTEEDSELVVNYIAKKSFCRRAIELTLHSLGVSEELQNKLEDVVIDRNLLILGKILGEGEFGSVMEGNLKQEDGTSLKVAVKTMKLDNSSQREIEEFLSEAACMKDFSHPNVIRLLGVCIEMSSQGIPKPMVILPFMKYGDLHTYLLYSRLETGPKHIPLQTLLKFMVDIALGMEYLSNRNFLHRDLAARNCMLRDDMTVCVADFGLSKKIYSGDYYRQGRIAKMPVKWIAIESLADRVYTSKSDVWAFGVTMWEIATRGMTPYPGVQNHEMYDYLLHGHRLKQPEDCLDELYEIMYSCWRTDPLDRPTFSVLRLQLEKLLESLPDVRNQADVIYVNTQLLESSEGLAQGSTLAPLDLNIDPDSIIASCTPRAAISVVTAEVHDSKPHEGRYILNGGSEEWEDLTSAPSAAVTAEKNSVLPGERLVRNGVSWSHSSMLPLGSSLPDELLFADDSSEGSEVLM
Experiment: phosphorylation enrichment, bacterial display (enrichment ratio); higher = better substrate or ligand; peptides without Tyr show the background
metric: phosphorylation enrichment
Could you keep your reply to the number by itself?

Here are 8 sequences together with their reported answers.
INSERT INTO assay_data (seq, result) VALUES
  ('RFLERYIFNRQ [HLA-DPB1_Y57_E62Q_YF]', 0.756),
  ('ETKEDYEKILV [ANXA1_Y335_G333E]', 0.53),
  ('EMTAEYACTRK [ACAD9_Y325]', 0.457),
  ('SGLDSYVRSLP [TRAPPC1_Y133_R129G]', 0.402),
  ('NGEDLYAGSTD [XRCC1_Y515_P514L]', 0.446),
  ('CTTFHYNFMCN [TP53_Y234_I232F_YF]', 0.4),
  ('FRDMDYRSFPR [RBM10_Y41_YF]', 0.446),
  ('DLFRLYVCVKE [ARID1B_Y1091]', 0.364);

*Q* I would be grateful if you could share the reported phosphorylation enrichment for VVQGLYKSMPK [KBTBD2_Y250] .
*A* 0.532

*Q* Also, TLSGIYQFIIA [FOXL2_Y81_YF] please.
*A* 10.1

*Q* Also, ENFSEYQEISV [HEMGN_Y150_A154S] please.
*A* 0.659

*Q* Also, KNKNRSKNILP [PTPN11_Y279_Y279S] please.
*A* 0.561

*Q* Also, CTTIHSNYMCN [TP53_Y234_Y234S] please.
*A* 0.479

*Q* Also, KFLVGYEMLAQ [GALT_Y339_M336L] please.
*A* 0.323

*Q* Also, LSQDVYEEDSY [RET_Y900_R897Q] please.
*A* 0.584

*Q* Also, EFTAGYNVKFD [GPX4_Y123_A120T] please.
*A* 0.445
